# Test system: AncSZ
# experiment: phosphorylation enrichment, bacterial display (enrichment ratio); higher = better substrate or ligand; peptides without Tyr show the background;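 also: 11-residue human phosphosite peptides and single-mutation variants displayed on the E. coli surface, counted by deep sequencing, each peptide's frequency after selection divided by its frequency in the unselected input library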;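 also: frequency after pTyr selection over input frequency; kinase dosed for 20-30% of maximal phosphorylation in three min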
# if value of phosphorylation enrichment reaches 0.9, tag rule met; if it stays below, tag rule not met

Determine whether this sequence has phosphorylation enrichment no lower than 0.9: WFKKFYDANYD [MAPRE2_Y158]
rule met

Determine whether this sequence has phosphorylation enrichment no lower than 0.9: KSLFHYRQFSA [CPS1_Y1491_YF]
rule not met

Determine whether this sequence has phosphorylation enrichment no lower than 0.9: KKRSSYGNSSD [SELENOK_Y52_R50S]
rule not met

Determine whether this sequence has phosphorylation enrichment no lower than 0.9: RNNTEYVRDIG [MUSK_Y577_I575T]
rule not met

Determine whether this sequence has phosphorylation enrichment no lower than 0.9: VRFMAYTDETF [F8_Y450]
rule met

Determine whether this sequence has phosphorylation enrichment no lower than 0.9: LTECGYSFTTT [ACTB_Y198_R196C]
rule met

Determine whether this sequence has phosphorylation enrichment no lower than 0.9: FTYDPYSEEEP [IL2RB_Y387_D391E]
rule met

Determine whether this sequence has phosphorylation enrichment no lower than 0.9: FTTIHYNFMCN [TP53_Y234_C229Y_YF]
rule met

Determine whether this sequence has phosphorylation enrichment no lower than 0.9: CTTIHCNFMCN [TP53_Y234_Y234C_YF]
rule not met

Determine whether this sequence has phosphorylation enrichment no lower than 0.9: EVESPYEVRDY [GIGYF2_Y1168_H1171R]
rule met

Determine whether this sequence has phosphorylation enrichment no lower than 0.9: HSLLQYGGSAN [ANK1_Y624_R619H]
rule not met

Determine whether this sequence has phosphorylation enrichment no lower than 0.9: TTKGAYSLSIR [YES1_Y194]
rule not met

Determine whether this sequence has phosphorylation enrichment no lower than 0.9: ANAYIYVVQLP [L1CAM_Y420]
rule met

Determine whether this sequence has phosphorylation enrichment no lower than 0.9: IDFARYWHGDD [MMP11_Y162]
rule not met

Determine whether this sequence has phosphorylation enrichment no lower than 0.9: LGPDGYSTVDR [ARVCF_Y901]
rule met

Determine whether this sequence has phosphorylation enrichment no lower than 0.9: RDHYGYRQSVT [CD55_Y245]
rule met

Determine whether this sequence has phosphorylation enrichment no lower than 0.9: MANYVYKAGPS [MAML2_Y515_M514V]
rule not met

Determine whether this sequence has phosphorylation enrichment no lower than 0.9: PFSNPYENSLI [EPOR_Y489_YF]
rule met

Determine whether this sequence has phosphorylation enrichment no lower than 0.9: GREAEYSEKHG [EPHB4_Y574_D576E]
rule not met

* * *

# targetEntity: Fyn (UniProt P06241)
# Sequence (P06241 whole entry, looked up): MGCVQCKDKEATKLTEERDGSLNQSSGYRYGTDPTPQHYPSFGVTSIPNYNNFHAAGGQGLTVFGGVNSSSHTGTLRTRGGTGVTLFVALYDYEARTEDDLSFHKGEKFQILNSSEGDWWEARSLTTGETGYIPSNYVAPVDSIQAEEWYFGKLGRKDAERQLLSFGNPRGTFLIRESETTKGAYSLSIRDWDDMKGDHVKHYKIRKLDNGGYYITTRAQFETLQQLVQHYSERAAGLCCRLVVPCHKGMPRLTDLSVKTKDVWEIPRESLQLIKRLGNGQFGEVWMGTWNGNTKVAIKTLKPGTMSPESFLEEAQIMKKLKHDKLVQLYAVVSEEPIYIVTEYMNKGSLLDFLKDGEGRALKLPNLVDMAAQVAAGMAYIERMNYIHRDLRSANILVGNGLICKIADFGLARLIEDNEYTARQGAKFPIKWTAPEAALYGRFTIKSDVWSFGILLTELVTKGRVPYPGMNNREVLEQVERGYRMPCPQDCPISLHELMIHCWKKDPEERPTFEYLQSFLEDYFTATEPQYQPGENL
# experiment: phosphorylation enrichment, bacterial display (enrichment ratio); higher = better substrate or ligand; peptides without Tyr show the background
phosphorylation enrichment reference

{"inputSequence": "LEEFQYIGESQ [MSH2_Y856]", "phosphorylation enrichment": 0.722}

Give me measured phosphorylation enrichment, please, for this sequence: LKGQVYILGGE [ASS1_Y359_R363G]
0.995

Give me measured phosphorylation enrichment, please, for this sequence: ISTAGYSFPEL [EDAR_Y406_I408F]
0.437

Give me measured phosphorylation enrichment, please, for this sequence: DPHECYAKVFD [ALB_Y394]
0.488

Give me measured phosphorylation enrichment, please, for this sequence: EEGRVYVFRLS [ITGAE_Y549_YF]
0.509

Give me measured phosphorylation enrichment, please, for this sequence: HLELNYKEDEY [MME_Y502_Y497H]
0.514

Give me measured phosphorylation enrichment, please, for this sequence: KDHPDYKFQRR [SOX10_Y171_P175R_YF]
0.321

Give me measured phosphorylation enrichment, please, for this sequence: YPKVRYHWLVL [APTX_Y214_A212V]
0.531

Give me measured phosphorylation enrichment, please, for this sequence: LDTSQYFRLFN [CPT2_Y217_M214T]
0.413

Give me measured phosphorylation enrichment, please, for this sequence: EATKVYLDDPT [G6PD_Y322_G321V]
0.444

Give me measured phosphorylation enrichment, please, for this sequence: QDRTFYESVRT [SPEN_Y633_YF]
1.21

Give me measured phosphorylation enrichment, please, for this sequence: WIPIQDPIISE [NOG_Y222_Y222D]
0.578

Give me measured phosphorylation enrichment, please, for this sequence: GREAEYSEKHG [EPHB4_Y574_D576E]
0.354

Give me measured phosphorylation enrichment, please, for this sequence: MLEVPYVDHNS [F10_Y384_R387H]
0.416

Give me measured phosphorylation enrichment, please, for this sequence: KGLMPYGQPRP [SRRT_Y798_Q793K]
0.36

Give me measured phosphorylation enrichment, please, for this sequence: KFACSYTPVKA [FLNB_Y708_T703K_YF]
0.472

Give me measured phosphorylation enrichment, please, for this sequence: SVGGCYEQLFV [MC4R_Y41_D37V]
0.982

Give me measured phosphorylation enrichment, please, for this sequence: FKNGDYNEVMK [LCT_Y1638]
0.389

Give me measured phosphorylation enrichment, please, for this sequence: HKLSYCEYDFE [BTK_Y40_Y40C]
1.68

Give me measured phosphorylation enrichment, please, for this sequence: IVAREYFSEAD [CAMK2A_Y106_YF]
0.538

Give me measured phosphorylation enrichment, please, for this sequence: TNDRLYLRSLE [MTM1_Y71_Y68D]
0.458

* * *

# Tested on: Fer (mouse)
# experiment: phosphorylation enrichment, bacterial display (enrichment ratio); higher = better substrate or ligand; peptides without Tyr show the background
phosphorylation enrichment reference
No unit in the answer, please; the number alone is enough.

Reference set (4 entries):
{"inputSequence": "QGIIIYRAAYF [SLC25A4_Y187]", "targetEntity": "Fer (mouse)", "phosphorylation enrichment": 0.773}
{"inputSequence": "DLGIQYKALKP [CTNNA1_Y177]", "targetEntity": "Fer (mouse)", "phosphorylation enrichment": 0.498}
{"inputSequence": "AFPVSYSSSGA [RET_Y687]", "targetEntity": "Fer (mouse)", "phosphorylation enrichment": 0.392}
{"inputSequence": "MDNQEYKDAYT [BRDT_Y331_K336T]", "targetEntity": "Fer (mouse)", "phosphorylation enrichment": 0.638}

// fetch phosphorylation enrichment for GEVLVYVEDPA [FLNA_Y319] ; system: Fer (mouse)
0.85

// fetch phosphorylation enrichment for LFIDSYEKDVA [PGM1_Y521_YF] ; system: Fer (mouse)
0.767

// fetch phosphorylation enrichment for IKAGAYDFPSL [CAMK2A_Y230_P235L] ; system: Fer (mouse)
1.03

* * *

# targetEntity: Jak2 (UniProt O60674)
# Sequence (O60674 whole entry, looked up): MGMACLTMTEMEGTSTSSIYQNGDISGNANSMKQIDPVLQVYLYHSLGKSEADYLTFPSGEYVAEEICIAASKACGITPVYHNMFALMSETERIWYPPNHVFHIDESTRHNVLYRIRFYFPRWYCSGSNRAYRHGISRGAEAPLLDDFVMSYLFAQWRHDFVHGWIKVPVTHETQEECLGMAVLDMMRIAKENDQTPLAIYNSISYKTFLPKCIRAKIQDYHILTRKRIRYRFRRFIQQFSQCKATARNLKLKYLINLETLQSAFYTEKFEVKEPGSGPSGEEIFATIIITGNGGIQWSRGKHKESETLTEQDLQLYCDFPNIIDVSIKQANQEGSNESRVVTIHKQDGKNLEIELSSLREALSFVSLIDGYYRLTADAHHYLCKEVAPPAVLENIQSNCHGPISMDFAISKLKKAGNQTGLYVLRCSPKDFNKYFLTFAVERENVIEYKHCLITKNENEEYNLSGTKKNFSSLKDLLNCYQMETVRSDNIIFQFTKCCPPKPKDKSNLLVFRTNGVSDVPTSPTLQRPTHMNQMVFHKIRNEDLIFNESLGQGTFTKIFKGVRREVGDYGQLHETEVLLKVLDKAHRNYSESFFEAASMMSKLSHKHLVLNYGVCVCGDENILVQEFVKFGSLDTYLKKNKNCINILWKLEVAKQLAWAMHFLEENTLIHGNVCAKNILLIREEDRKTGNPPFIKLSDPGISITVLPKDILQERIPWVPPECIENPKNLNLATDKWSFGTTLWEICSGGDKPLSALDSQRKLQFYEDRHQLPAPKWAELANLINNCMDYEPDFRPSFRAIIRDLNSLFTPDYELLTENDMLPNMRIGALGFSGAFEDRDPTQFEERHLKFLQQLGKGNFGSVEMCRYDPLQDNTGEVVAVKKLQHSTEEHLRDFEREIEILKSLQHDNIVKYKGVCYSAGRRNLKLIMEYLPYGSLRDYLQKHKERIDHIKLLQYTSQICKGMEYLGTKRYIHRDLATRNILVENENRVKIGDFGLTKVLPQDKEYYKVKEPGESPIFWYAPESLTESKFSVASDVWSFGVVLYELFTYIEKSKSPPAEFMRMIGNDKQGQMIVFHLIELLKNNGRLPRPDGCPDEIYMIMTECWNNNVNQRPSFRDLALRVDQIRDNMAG
# experiment: phosphorylation enrichment, bacterial display (enrichment ratio); higher = better substrate or ligand; peptides without Tyr show the background
phosphorylation enrichment reference

{"inputSequence": "SSRKEYFIGGG [GYPC_Y126]", "phosphorylation enrichment": 0.519}
{"inputSequence": "APSEFYDGDHD [HDAC3_Y414_N411S]", "phosphorylation enrichment": 1.32}
{"inputSequence": "FHKALYTVRSY [PDE6C_Y266]", "phosphorylation enrichment": 0.704}
{"inputSequence": "NCFKYYMSDDI [ATRX_Y204]", "phosphorylation enrichment": 1.32}
{"inputSequence": "VDFQPYRKHKF [TEX37_Y28_YF]", "phosphorylation enrichment": 0.479}
{"inputSequence": "WCSNDHLGMSR [ALAS2_Y199_Y199H]", "phosphorylation enrichment": 0.537}
{"inputSequence": "HHTDECEFDEL [TGM1_Y134_Y134C_YF]", "phosphorylation enrichment": 1.05}
{"inputSequence": "HGAKVYIDPFT [EPHB4_Y590_T587A]", "phosphorylation enrichment": 0.761}
{"inputSequence": "PYAEPYADYGG [APBA1_Y187_S184A]", "phosphorylation enrichment": 2.47}
{"inputSequence": "GGMTEYKLVVV [KRAS_Y4]", "phosphorylation enrichment": 0.685}

// fetch phosphorylation enrichment for KSLFHYRQFSA [CPS1_Y1491_YF] ; system: Jak2 (UniProt O60674)
0.942

// fetch phosphorylation enrichment for RHLQEYQDPLN [GFAP_Y349_L352P] ; system: Jak2 (UniProt O60674)
0.878

// fetch phosphorylation enrichment for PSAEGYQDVRD [ABLIM1_Y439] ; system: Jak2 (UniProt O60674)
0.873

// fetch phosphorylation enrichment for DKATEYIQFMR [MAX_Y70_YF] ; system: Jak2 (UniProt O60674)
0.793

// fetch phosphorylation enrichment for RMSSSYPTGLA [ADM_Y52] ; system: Jak2 (UniProt O60674)
0.473

// fetch phosphorylation enrichment for FKDYFYCWNTS [AICDA_Y146_F151S] ; system: Jak2 (UniProt O60674)
3.67

// fetch phosphorylation enrichment for PDMHSYVVRFN [GRIN2D_Y732_M733V_YF] ; system: Jak2 (UniProt O60674)
1.81

// fetch phosphorylation enrichment for LLNPRYNLPLD [TOM1L1_Y109] ; system: Jak2 (UniProt O60674)
0.83

// fetch phosphorylation enrichment for LAETSYVIVLE [MAGEA1_Y276_K278I] ; system: Jak2 (UniProt O60674)
2.19
